# Tested on: U-2932
# procedure.details: growth inhibition by drug plus 177Lu-lilotomab satetraxetan (1 - RLU/untreated control) (fraction); higher = stronger inhibition
# condition.notes: 10 nM; time (day): 3; 177Lu-lilotomab satetraxetan 1 ug/ml
Counter-ions that a name gives are not always drawn.
Output y for growth inhibition by drug plus 177Lu-lilotomab satetraxetan not less than 0.05; output n otherwise.

Solved entries:
# compound, cat
data = [
    ("C[C@@H](Oc1cc(-n2cnc3ccc(CN4CCN(C)CC4)cc32)sc1C(N)=O)c1ccccc1C(F)(F)F", "y"),
    ("Cc1ccc([N+](=O)[O-])cc1S(=O)(=O)N(C)/N=C/c1cnc2ccc(Br)cn12", "y"),
    ("COc1ccc(C2=N[C@@H](c3ccc(Cl)cc3)[C@@H](c3ccc(Cl)cc3)N2C(=O)N2CCNC(=O)C2)c(OC(C)C)c1 [Nutlin-3]", "n"),
    ("Nc1ccccc1NC(=O)c1ccc(CNC(=O)OCc2cccnc2)cc1 [Entinostat (MS-275, SNDX-275)]", "y"),
    ("COc1nc(C)cnc1NS(=O)(=O)c1cccnc1-c1ccc(-c2nnco2)cc1 [Zibotentan (ZD4054)]", "n"),
]

**Query** Please indicate if the recorded growth inhibition by drug plus 177Lu-lilotomab satetraxetan for CS(=O)(=O)N1CCc2c(-c3cnc(N)nc3)nc(N3CCOCC3)nc21 meets or exceeds 0.05.
**Result** y

**Query** Decide: growth inhibition by drug plus 177Lu-lilotomab satetraxetan of O=C1c2c(O)ccc(O)c2C(=O)c2c(NCCNCCO)ccc(NCCNCCO)c21 [Mitoxantrone Hydrochloride] >= 0.05?
**Result** y

----------
# Test system: U-2932
# procedure.details: growth inhibition by drug plus 177Lu-lilotomab satetraxetan (1 - RLU/untreated control) (fraction); higher = stronger inhibition
# condition.notes: 10 nM; time (day): 3; 177Lu-lilotomab satetraxetan 1 ug/ml
Where a name gives a salt, the structure may show the parent alone.
Mark YES for reported growth inhibition by drug plus 177Lu-lilotomab satetraxetan of 0.03 or greater; mark NO for anything smaller.

# compound, cat
data = [
    ("C[C@@H](N)[C@H]1CC[C@H](C(=O)Nc2ccncc2)CC1", "NO"),
    ("COc1c(C)c2c(c(O)c1C/C=C(\\C)CCC(=O)OCCN1CCOCC1)C(=O)OC2 [Mycophenolate mofetil (CellCept)]", "YES"),
    ("CO[C@H]1C[C@@H]2CC[C@@H](C)[C@@](O)(O2)C(=O)C(=O)N2CCCC[C@H]2C(=O)O[C@H]([C@H](C)C[C@@H]2CC[C@@H](OCCO)[C@H](OC)C2)CC(=O)[C@H](C)/C=C(\\C)[C@@H](O)[C@@H](OC)C(=O)[C@H](C)C[C@H](C)/C=C/C=C/C=C/1C [Everolimus (RAD001)]", "YES"),
    ("O=C(Cc1ccc(-c2ccc(OCCN3CCOCC3)cc2)cn1)NCc1ccccc1", "YES"),
    ("COc1cc(Nc2ncc3c(n2)-c2ccc(Cl)cc2C(c2c(F)cccc2OC)=NC3)ccc1C(=O)O", "NO"),
    ("C=C1/C(=C\\C=C2/CCC[C@]3(C)[C@@H]([C@H](C)/C=C/[C@H](C)C(C)C)CC[C@@H]23)C[C@@H](O)C[C@@H]1O", "YES"),
    ("CC(=O)O[C@]1(C(C)=O)CC[C@H]2[C@@H]3C[C@H](C)C4=CC(=O)CC[C@]4(C)[C@H]3CC[C@@]21C [Medroxyprogesterone acetate]", "YES"),
    ("Cn1c(=O)c(F)c(Nc2ccc(I)cc2F)c2c(=O)n(C[C@@H](O)CO)cnc21", "YES"),
    ("C=CC(=O)Nc1cccc(Oc2nc(Nc3ccc(N4CCN(C)CC4)cc3OC)ncc2Cl)c1", "NO"),
    ("CC[C@@]1(O)C(=O)OCc2c1cc1n(c2=O)Cc2cc3c(CN(C)C)c(O)ccc3nc2-1 [Topotecan HCl]", "YES"),
]

**Query** Hi team, for CN(C)c1nc(N(C)C)nc(N(C)C)n1 , is the recorded growth inhibition by drug plus 177Lu-lilotomab satetraxetan at or above 0.03?
**Result** NO
